# TARGET OR TEST SYSTEM: human MC3R (human, UniProt P41968 1-323)
# Sequence (P41968 whole entry): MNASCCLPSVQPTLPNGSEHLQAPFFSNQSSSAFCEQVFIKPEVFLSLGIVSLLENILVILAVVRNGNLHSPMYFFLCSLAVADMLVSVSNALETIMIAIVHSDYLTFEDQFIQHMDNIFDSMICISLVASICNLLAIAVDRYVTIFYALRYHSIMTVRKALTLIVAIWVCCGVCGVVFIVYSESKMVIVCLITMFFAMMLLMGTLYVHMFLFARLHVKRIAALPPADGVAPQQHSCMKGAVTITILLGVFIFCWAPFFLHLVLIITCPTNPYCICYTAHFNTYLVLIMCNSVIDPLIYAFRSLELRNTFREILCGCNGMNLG
# TEST SUMMARY: cell-based or functional assay
Positions of bridges follow the written chain, without caps; N, C: chain ends. Non-standard residues stand in square brackets, D forms with d. 2Nal = N[C@@H](Cc1ccc2ccccc2c1)C(=O)O; Nle = CCCC[C@H](N)C(=O)O; Aib = CC(C)(N)C(=O)O
RECORDED ENDPOINT: cAMP EC50 (nM)
Answer with a number only, understood to be in nM.

Query :: Recorded cAMP EC50 of Ac-RC[dA]R[dF]R[dF]C-NH2 (disulfide 2-8; SMILES CC(=O)N[C@@H](CCCNC(=N)N)C(=O)N[C@H]1CSSC[C@@H](C(N)=O)NC(=O)[C@@H](Cc2ccccc2)NC(=O)[C@H](CCCNC(=N)N)NC(=O)[C@@H](Cc2ccccc2)NC(=O)[C@H](CCCNC(=N)N)NC(=O)[C@@H](C)NC1=O) [CTX-1265] , please.
Result :: 29.9

Query :: Sample Ac-[Nle]CH[2Nal]R[dW]CRFG-NH2 (disulfide 2-7; SMILES CCCC[C@H](NC(C)=O)C(=O)N[C@H]1CSSC[C@@H](C(=O)N[C@@H](CCCNC(=N)N)C(=O)N[C@@H](Cc2ccccc2)C(=O)NCC(N)=O)NC(=O)[C@@H](Cc2c[nH]c3ccccc23)NC(=O)[C@H](CCCNC(=N)N)NC(=O)[C@H](Cc2ccc3ccccc3c2)NC(=O)[C@H](Cc2c[nH]cn2)NC1=O) [CTX-2128] — what was its cAMP EC50?
Result :: 39

Query :: Using the record for Ac-RC[Aib]R[dF]RFC-NH2 (disulfide 2-8) [CTX-1601] , report its cAMP EC50.
Result :: 26

Query :: Param item = Ac-C[Aib]R[dF]RFC-NH2 (disulfide 1-7; SMILES CC(=O)N[C@H]1CSSC[C@@H](C(N)=O)NC(=O)[C@H](Cc2ccccc2)NC(=O)[C@H](CCCNC(=N)N)NC(=O)[C@@H](Cc2ccccc2)NC(=O)[C@H](CCCNC(=N)N)NC(=O)C(C)(C)NC1=O) [CTX-1635] ; retrieve measured cAMP EC50.
Result :: 380
